assay_text: Biodistribution of 99mTc complexes in mice
Format: in vivo, Balb/c mice
measurement_setup: 30 min
value_kind: biodistribution liver (% Injected dose)

In [3]: df
Out[3]:
                              smiles_string             value_kind         unit_tag  data_value
0  O=C(O)CN(CCN(CC(=O)O)CC(=O)Nc1ccccc1O)CC(=O)Nc1ccccc1O  biodistribution liver  % Injected dose        3.09

[I] Nc1ccc(O)c(NC(=O)CN(CCN(CC(=O)O)CC(=O)Nc2cc(N)ccc2O)CC(=O)O)c1
[II] Cc1cc(C)c(O)c(NC(=O)CN(CCN(CC(=O)O)CC(=O)Nc2cc(C)cc(C)c2O)CC(=O)O)c1
[III] O=C(O)CN(CCN(CC(=O)O)CC(=O)Nc1ccc(Cl)cc1O)CC(=O)Nc1ccc(Cl)cc1O
Please give the order of these compounds when sorted by biodistribution liver, largest value leading. Form entry: labels listed in requested order. II, III, I

###

assay_text: Biodistribution of 99mTc complexes in rats
Type: in vivo, Australian Albino Wistar Rats
measurement_setup: rat, heart, rats, 30 sec, read-out: biodistribution heart
value_kind: tissue uptake at 0.5 min (%ID/g)

These recorded examples may help you get a feel for the data.
>>> print(df.to_string())
                              smiles_string  data_value
0  O=C(O)CN(CCN(CC(=O)O)CC(=O)Nc1ccc(Cl)cc1O)CC(=O)Nc1ccc(Cl)cc1O        0.87
1  CC(C)(C)c1ccc(O)c(NC(=O)CN(CCN(CC(=O)O)CC(=O)Nc2cc(C(C)(C)C)ccc2O)CC(=O)O)c1        1.78
2  O=C(O)CN(CCN(CC(=O)O)CC(=O)Nc1cc([N+](=O)[O-])ccc1O)CC(=O)Nc1cc([N+](=O)[O-])ccc1O        0.78

[A] O=C(O)CN(CCN(CC(=O)O)CC(=O)Nc1ccccc1O)CC(=O)Nc1ccccc1O
[B] Nc1ccc(O)c(NC(=O)CN(CCN(CC(=O)O)CC(=O)Nc2cc(N)ccc2O)CC(=O)O)c1
Lab notebook, comparison: A versus B , higher tissue uptake at 0.5 min goes to which? # respond with the chosen item's label B

###

assay_text: Biodistribution of 99mTc complexes in rats
Assay type: in vivo, Australian Albino Wistar Rats
measurement_setup: rat, thyroid, rats, 30 sec, read-out: biodistribution thyroid
value_kind: tissue uptake at 0.5 min (%ID/g)

>>> df
                              smiles_string                value_kind  data_value
0  CC(C)(C)c1ccc(O)c(NC(=O)CN(CCN(CC(=O)O)CC(=O)Nc2cc(C(C)(C)C)ccc2O)CC(=O)O)c1  tissue uptake at 0.5 min        3.49
1  O=C(O)CN(CCN(CC(=O)O)CC(=O)Nc1cc([N+](=O)[O-])ccc1O)CC(=O)Nc1cc([N+](=O)[O-])ccc1O  tissue uptake at 0.5 min        1.11
2  Nc1ccc(O)c(NC(=O)CN(CCN(CC(=O)O)CC(=O)Nc2cc(N)ccc2O)CC(=O)O)c1  tissue uptake at 0.5 min        1.85
3  O=C(O)CN(CCN(CC(=O)O)CC(=O)Nc1ccccc1O)CC(=O)Nc1ccccc1O  tissue uptake at 0.5 min        1.42
4  O=C(O)CN(CCN(CC(=O)O)CC(=O)Nc1ccc(Cl)cc1O)CC(=O)Nc1ccc(Cl)cc1O  tissue uptake at 0.5 min        1.41

Ref: patent US5807535A
